meta.source: ChEMBL document CHEMBL3885861

- Organism: Rattus norvegicus
- protocol-text: Open TG-GATES - Regimen: Single
- Format: toxicity, organism-based, Sprague-Dawley
- Set-up: regimen Single, gender Male, age 6 weeks
- study-conditions: in vivo, po, 0 mg/kg, 6 h, tissue Plasma, route gavage, dose level Control
Mark yes (1) only when K stays strictly below 4 meq/L. Values equal to the cut-off are no (0).

# compound, assigned-class
records = [
    ("S=C=Nc1cccc2ccccc12 [1-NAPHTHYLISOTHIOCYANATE]", "yes (1)"),
    ("Cn1cnc([N+](=O)[O-])c1Sc1ncnc2nc[nH]c12", "no (0)"),
    ("CNCCC(Oc1ccc(C(F)(F)F)cc1)c1ccccc1.Cl (stereo unspecified) [FLUOXETINE HYDROCHLORIDE]", "no (0)"),
    ("COc1ccc(Cl)cc1C(=O)NCCc1ccc(S(=O)(=O)NC(=O)NC2CCCCC2)cc1 [GLYBURIDE]", "yes (1)"),
    ("CS(=O)(=O)Nc1ccc([N+](=O)[O-])cc1Oc1ccccc1 [NIMESULIDE]", "no (0)"),
    ("O=C1NC(=O)C(c2ccccc2)(c2ccccc2)N1", "no (0)"),
    ("C=CCO", "yes (1)"),
    ("O=C1CN(/N=C/c2ccc(-c3ccc([N+](=O)[O-])cc3)o2)C(O)=N1", "no (0)"),
]
